# method_description: small-molecule binders of probe aNOTCH2, primary screen, biochemical, small-molecule microarray, 635/667 nm fluorescence (AID 1121);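 also: score merges feature fluorescence read at 667 nm with its signal to noise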
# details: higher = more signal
Hi, to clarify the labels: yes (1) covers composite z-score from -0.07 upward, no (0) covers anything below -0.07.

# example entries with known answers
INSERT INTO assay_data (compound, answer_label) VALUES
  ('C=CC[C@]1(C(=O)N2CCCCC2)COC(c2ccc(OCCCO)cc2)=N1', 'no (0)'),
  ('CN(C)CCCC[C@@H]1NC(=O)[C@@H]2C[C@H](C(=O)NCCCCCNC(=O)CS)[C@H](c3cccc(OCCO)c3)N2C1=O', 'no (0)');

[Q] // inclusive: composite z-score at least -0.07? input: `C=C(C1=CCN(S(=O)(=O)c2ccc(C)cc2)C1)[C@@H](OC(C)=O)[C@@H]1CCCN1S(=O)(=O)c1ccccc1[N+](=O)[O-]`
[A] no (0)

[Q] Say whether `COC(=O)C(CC#Cc1ccc2c(c1)[C@]1(C(=O)N2)[C@H](c2ccccc2OCCO)N2[C@H](c3ccccc3)[C@H](c3ccccc3)OC(=O)[C@H]2[C@@H]1C(=O)N1CCCCCCC1)C(=O)OC` shows composite z-score of -0.07 or more.
[A] yes (1)

[Q] Can `C=CC[C@]1(C(=O)N(C)C)N=C(c2ccc(OCCCO)cc2)O[C@H]1c1ccccc1CN=[N+]=[N-]` be said to have composite z-score at or above -0.07?
[A] yes (1)

[Q] Check the entry `CCCNC(=O)[C@@]1(Sc2ccc(C)cc2)CC(=O)N(Cc2cc(C(F)(F)F)cc(C(F)(F)F)c2)[C@@H]1c1ccc(CO)cc1I` : does composite z-score equal or exceed -0.07?
[A] yes (1)

[Q] Is composite z-score for `C[N+](C)(C)CCCC[C@@H]1NC(=O)[C@@H]2C[C@H](C(=O)NCCCCCNC(=O)CS)[C@H](c3ccc(O)cc3)N2C1=O` at or above -0.07?
[A] no (0)

[Q] Identify whether the reported composite z-score of the following compound is -0.07 or greater: `CO[C@H]1O[C@H](CO)[C@@H](OC(=O)Nc2ccccc2)[C@H](OC(=O)Nc2ccc3c(c2)OCO3)[C@H]1OC(=O)Nc1ccc2c(c1)OCO2`
[A] yes (1)

[Q] Is it the case that `O=C1O[C@H](c2ccccc2)[C@H](c2ccccc2)N2[C@H]1[C@@H](C(=O)NC[C@H](O)c1ccccc1)[C@]1(C(=O)Nc3ccc(C#CC4(O)CCCCCC4)cc31)[C@H]2c1ccc(O)cc1` has composite z-score reaching or exceeding -0.07?
[A] yes (1)

[Q] Does the compound `Cc1ccc(S[C@]2(C(=O)NCCN3CCOCC3)CC(=O)N(Cc3cc(C(F)(F)F)cc(C(F)(F)F)c3)[C@@H]2c2ccc(CO)cc2)cc1` have recorded composite z-score that is -0.07 or more?
[A] no (0)

[Q] Tell me whether composite z-score is at least -0.07 here: `O=C(N1CCCCC1)[C@@]1(Cc2ccccc2)N=C(c2ccc(OCCCO)cc2)O[C@H]1c1ccccc1`
[A] yes (1)

[Q] Check if composite z-score >= -0.07 (inclusive). Item: `C/C=C/[C@@H](CCn1cc(CCO[Si](C(C)C)(C(C)C)C(C)C)nn1)[Si](C)(C)c1ccc(OC)cc1`
[A] no (0)

[Q] API: above_or_equal(metric=composite z-score, cutoff=-0.07) for item `COCCOC(=O)N1C(=O)[C@@]2(c3cc(C#CC4(O)CCCCCC4)ccc31)[C@H](C(=O)NC[C@H](O)c1ccccc1)[C@H]1C(=O)O[C@H](c3ccccc3)[C@H](c3ccccc3)N1[C@@H]2c1ccccc1OCCO`
[A] no (0)

[Q] Hello, I need to know if `CCCCCCC#C[Si](O[C@H](c1ccccc1)c1cn(Cc2ccccc2)nn1)(C(C)C)C(C)C` has measured composite z-score not below -0.07. Thanks!
[A] no (0)

[Q] Check if composite z-score >= -0.07 (inclusive). Item: `COCCCNC(=O)[C@@]1(Cc2ccccc2)N=C(c2ccc(OCCCO)cc2)O[C@H]1c1ccccc1N=[N+]=[N-]`
[A] yes (1)
